- TEST TARGET: UniProtKB Q12809
- Sequence (Q12809 whole entry): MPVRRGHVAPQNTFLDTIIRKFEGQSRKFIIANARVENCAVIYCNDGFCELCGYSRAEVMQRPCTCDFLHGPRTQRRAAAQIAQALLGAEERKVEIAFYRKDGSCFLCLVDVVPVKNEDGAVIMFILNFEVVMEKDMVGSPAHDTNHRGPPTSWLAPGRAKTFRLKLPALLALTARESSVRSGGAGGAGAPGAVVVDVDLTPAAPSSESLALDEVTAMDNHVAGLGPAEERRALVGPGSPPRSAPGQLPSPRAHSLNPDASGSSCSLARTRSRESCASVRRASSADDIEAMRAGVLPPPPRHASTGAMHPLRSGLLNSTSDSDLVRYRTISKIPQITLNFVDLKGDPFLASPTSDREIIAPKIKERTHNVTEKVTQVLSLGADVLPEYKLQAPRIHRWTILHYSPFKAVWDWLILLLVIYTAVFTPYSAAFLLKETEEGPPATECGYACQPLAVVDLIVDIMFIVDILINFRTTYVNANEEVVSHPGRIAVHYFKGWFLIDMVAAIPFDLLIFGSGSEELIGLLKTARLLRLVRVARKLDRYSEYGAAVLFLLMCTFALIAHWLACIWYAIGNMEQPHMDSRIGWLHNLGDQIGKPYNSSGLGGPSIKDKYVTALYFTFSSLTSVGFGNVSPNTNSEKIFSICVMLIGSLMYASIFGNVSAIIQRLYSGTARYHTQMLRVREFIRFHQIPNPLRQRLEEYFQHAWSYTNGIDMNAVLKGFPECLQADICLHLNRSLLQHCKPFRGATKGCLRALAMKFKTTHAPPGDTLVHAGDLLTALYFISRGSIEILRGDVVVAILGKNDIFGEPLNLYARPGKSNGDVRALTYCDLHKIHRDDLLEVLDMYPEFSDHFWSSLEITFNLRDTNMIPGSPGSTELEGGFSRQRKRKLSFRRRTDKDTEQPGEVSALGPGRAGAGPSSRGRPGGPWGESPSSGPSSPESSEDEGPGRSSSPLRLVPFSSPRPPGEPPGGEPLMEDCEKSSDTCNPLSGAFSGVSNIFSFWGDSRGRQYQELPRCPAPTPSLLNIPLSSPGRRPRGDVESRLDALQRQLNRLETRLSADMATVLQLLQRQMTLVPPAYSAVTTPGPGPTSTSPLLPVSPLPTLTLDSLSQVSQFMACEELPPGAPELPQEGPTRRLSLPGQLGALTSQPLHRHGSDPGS
- ASSAY COMMENT: Inhibition of hERG by fluorescence polarization assay
# key: entry, value: EC50

As a guide, the following entries are already answered.
COc1ccc2ncc(F)c(CCCN3CCN(C/C=C/c4ccccc4)C[C@@H]3C(=O)O)c2c1; 38 µM
COc1ccc2ncc(F)c(/C=C\CN3CCN(CCSc4cccs4)C[C@@H]3C(=O)O)c2c1; < 30 µM
COc1ccc2ncc(F)c(CCCN3CCN(CCCc4ccccc4)C[C@@H]3C(=O)O)c2c1; 17 µM
COc1ccc2ncc(F)c(CCCN3CCN(CCSc4cccs4)C[C@@H]3C(=O)O)c2c1; 17 µM

# context switch: different compound, same EC50
Identify the measured EC50 of COC(=O)[C@@H]1CN(CCSc2cccs2)CCN1CCCc1c(F)cnc2ccc(OC)cc12 for UniProtKB Q12809.
4 µM

###

The following compounds are listed with their measured pIC50 values.
- TEST TARGET: DNA gyrase (Staphylococcus aureus, UniProt P0A0K8+P20831)
- Sequence (P0A0K8 whole entry): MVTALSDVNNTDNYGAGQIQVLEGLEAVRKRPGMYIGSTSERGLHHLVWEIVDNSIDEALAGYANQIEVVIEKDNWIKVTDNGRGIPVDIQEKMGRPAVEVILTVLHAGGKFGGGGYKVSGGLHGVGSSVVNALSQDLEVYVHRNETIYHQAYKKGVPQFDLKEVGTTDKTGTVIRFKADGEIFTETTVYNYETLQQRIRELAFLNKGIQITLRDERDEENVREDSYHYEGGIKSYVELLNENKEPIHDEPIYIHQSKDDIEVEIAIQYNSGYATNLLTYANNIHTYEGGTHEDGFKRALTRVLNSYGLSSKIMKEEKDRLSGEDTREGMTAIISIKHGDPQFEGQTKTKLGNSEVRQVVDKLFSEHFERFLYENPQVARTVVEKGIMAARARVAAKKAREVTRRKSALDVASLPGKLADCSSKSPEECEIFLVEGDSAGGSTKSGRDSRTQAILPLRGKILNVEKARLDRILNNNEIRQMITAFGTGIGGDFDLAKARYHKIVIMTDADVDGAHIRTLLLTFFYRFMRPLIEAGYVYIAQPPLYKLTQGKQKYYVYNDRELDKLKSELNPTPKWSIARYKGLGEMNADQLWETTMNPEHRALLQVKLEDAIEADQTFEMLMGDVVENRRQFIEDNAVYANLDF
- Sequence (P20831 whole entry): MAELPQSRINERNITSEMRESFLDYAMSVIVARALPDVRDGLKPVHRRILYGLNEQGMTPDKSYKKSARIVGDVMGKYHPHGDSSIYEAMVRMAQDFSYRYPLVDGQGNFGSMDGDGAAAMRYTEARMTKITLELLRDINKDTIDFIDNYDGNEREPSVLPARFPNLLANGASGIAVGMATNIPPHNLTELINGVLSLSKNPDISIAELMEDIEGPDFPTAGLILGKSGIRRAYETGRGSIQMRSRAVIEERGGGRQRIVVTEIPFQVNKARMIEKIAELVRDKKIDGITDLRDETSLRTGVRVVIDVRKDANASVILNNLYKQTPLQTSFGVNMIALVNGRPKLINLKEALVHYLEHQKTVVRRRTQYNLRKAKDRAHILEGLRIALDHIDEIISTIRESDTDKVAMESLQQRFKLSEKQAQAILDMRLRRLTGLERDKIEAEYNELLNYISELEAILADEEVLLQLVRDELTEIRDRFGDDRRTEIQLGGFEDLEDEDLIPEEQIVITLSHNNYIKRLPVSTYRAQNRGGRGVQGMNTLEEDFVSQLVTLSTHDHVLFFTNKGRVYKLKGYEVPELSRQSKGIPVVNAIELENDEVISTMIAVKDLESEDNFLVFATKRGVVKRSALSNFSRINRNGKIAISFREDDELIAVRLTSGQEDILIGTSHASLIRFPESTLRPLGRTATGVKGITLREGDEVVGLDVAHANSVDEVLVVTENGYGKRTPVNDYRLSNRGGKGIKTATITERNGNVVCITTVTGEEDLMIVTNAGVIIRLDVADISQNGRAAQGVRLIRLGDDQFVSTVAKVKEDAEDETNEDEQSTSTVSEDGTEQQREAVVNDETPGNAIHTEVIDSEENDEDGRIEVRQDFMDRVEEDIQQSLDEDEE
- ASSAY COMMENT: Inhibition of Staphylococcus aureus DNA gyrase supercoiling activity using pNO1 plasmid DNA as substrate incubated for 30 mins by fluorescence based microtiter plate reader assay
For clarity, pIC50 is expressed as the negative log10 of concentration in mol/L.

COc1ccc2ncc(F)c(CCCN3CCN(CCCCc4ccccc4)C[C@@H]3C(=O)O)c2c1; 6.43
COc1ccc2ncc(F)c(CCCN3CCN(CCc4ccccc4)C[C@@H]3C(=O)O)c2c1; 6.27
COc1ccc2ncc(F)c(CCCN3CCN(C/C=C/c4cc(F)ccc4F)C[C@@H]3C(=O)O)c2c1; 6.55

Record request: pIC50 value, item COc1ccc2ncc(F)c(CCCN3CCN(CCCc4ccccc4)C[C@@H]3C(=O)O)c2c1
6.34

Can you share its pIC50? I mean this compound: COC(=O)[C@H]1CN(CCSc2cccs2)CCN1CCCc1c(F)cnc2ccc(OC)cc12
3.52

Returns the measured pIC50 for the input compound. Input: COc1ccc2ncc(F)c(/C=C/CN3CCN(CCSc4cccs4)C[C@@H]3C(=O)O)c2c1
6.17

Name the recorded pIC50 for COc1ccc2ncc(F)c(C#CCN3CCN(CCSc4cccs4)C[C@@H]3C(=O)O)c2c1 .
6.32

Which value of pIC50 has been reported for COc1ccc2ncc(F)c(/C=C\CN3CCN(CCSc4cccs4)C[C@@H]3C(=O)O)c2c1 in the records?
6.55

# pIC50 lookup, item COc1ccc2ncc(F)c(CCCN3CCN(C/C=C/c4ccccc4)C[C@@H]3C(=O)O)c2c1
6.72

Looking for the measured pIC50 of COc1ccc2ncc(F)c([C@@H](O)CC[C@@H]3CCN(CCSc4cccs4)C[C@@H]3C(=O)O)c2c1 , can you help?
6.47

Sample COc1ccc2ncc(F)c(CCCN3CCN(CCSc4cccs4)C[C@@H]3C(=O)O)c2c1 — what was its pIC50?
6.43

###

- TEST TARGET: Topoisomerase IV (Staphylococcus aureus, UniProt P0C1S7+P0C1U9)
- Sequence (P0C1U9 whole entry): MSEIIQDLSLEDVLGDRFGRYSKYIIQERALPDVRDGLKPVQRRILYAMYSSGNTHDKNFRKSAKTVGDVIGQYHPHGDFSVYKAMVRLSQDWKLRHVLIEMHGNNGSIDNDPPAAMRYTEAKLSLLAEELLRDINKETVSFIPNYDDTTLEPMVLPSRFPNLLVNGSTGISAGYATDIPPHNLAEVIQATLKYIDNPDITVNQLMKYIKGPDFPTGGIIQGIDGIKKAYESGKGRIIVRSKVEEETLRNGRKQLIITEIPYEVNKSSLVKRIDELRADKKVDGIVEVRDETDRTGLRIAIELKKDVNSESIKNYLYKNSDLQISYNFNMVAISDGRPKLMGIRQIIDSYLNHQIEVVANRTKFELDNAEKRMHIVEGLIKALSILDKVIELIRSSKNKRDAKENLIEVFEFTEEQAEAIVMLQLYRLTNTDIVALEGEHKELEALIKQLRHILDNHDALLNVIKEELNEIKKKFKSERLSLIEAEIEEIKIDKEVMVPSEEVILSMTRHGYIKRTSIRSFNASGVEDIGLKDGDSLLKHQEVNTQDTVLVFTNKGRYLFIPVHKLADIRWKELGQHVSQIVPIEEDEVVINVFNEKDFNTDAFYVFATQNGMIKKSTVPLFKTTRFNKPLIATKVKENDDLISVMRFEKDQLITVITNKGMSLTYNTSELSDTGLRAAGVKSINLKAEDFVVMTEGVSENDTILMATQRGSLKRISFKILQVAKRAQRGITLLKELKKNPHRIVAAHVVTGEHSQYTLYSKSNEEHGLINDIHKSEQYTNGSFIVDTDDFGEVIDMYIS
- Sequence (P0C1S7 whole entry): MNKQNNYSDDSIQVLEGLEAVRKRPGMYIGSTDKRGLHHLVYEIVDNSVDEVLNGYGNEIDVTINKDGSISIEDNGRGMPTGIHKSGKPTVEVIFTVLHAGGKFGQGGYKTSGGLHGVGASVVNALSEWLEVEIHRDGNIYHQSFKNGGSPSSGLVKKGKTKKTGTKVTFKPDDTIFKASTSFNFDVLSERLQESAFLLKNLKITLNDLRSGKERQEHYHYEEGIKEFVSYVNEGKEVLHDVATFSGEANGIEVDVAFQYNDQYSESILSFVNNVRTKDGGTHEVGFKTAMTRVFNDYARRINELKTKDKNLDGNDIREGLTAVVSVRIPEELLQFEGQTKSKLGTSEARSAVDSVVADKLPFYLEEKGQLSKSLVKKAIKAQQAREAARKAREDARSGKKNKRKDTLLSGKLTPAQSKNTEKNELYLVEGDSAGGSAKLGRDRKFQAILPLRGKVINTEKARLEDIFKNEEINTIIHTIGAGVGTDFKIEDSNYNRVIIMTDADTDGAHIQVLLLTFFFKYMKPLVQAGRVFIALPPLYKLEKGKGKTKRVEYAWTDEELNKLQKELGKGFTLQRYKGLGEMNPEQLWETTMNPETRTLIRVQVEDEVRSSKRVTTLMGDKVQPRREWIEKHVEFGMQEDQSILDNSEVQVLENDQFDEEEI
- ASSAY COMMENT: Inhibition of Staphylococcus aureus topoisomerase 4 using pNO1 plasmid DNA as substrate incubated for 30 mins by fluorescence based microtiter plate reader assay
PROPERTY MEASURED: pIC50
Remember, pIC50 is on a log scale: it is -log10 of the molar concentration.

Answered examples (2):
COc1ccc2ncc(F)c(/C=C/CN3CCN(CCSc4cccs4)C[C@@H]3C(=O)O)c2c1; 5.74
COc1ccc2ncc(F)c(CCCN3CCN(CCSc4cccs4)C[C@@H]3C(=O)O)c2c1; 5.12

I am curious: what pIC50 value has been reported for COc1ccc2ncc(F)c(CCCN3CCN(CCCCc4ccccc4)C[C@@H]3C(=O)O)c2c1 ?
5.42
